- System: COLO 205 colon
- assay.details: NCI tumour cell line growth inhibition, 48 h
Please respond with reported TGI for every item in the list.
Give bare numbers, in µM.

Observe how each entry below is paired with its result.
COC(=O)C1=C(C)NC(C)=C(C(=O)OC)C1/C=C(Cl)/C=C/c1ccccc1 :: 75.6
CC(C)[Si](OC1=CCC[C@H]2NC(=O)[C@@H](Cc3ccccc3)[C@@]12C)(C(C)C)C(C)C :: 6.35

Incoming: COLO 205 colon / TGI / "COc1cc2c(cc1C)NC(=O)/C2=C\c1cccc(Oc2ccccc2)c1" : value?
Outgoing: 33.5

====

Please respond with reported GI50 for every item in the list.
- Tested on: NCI-H522 lung
- assay.details: NCI tumour cell line growth inhibition, 48 h

CN(C)c1ccc(C(Cc2ccc3ccccc3n2)Cc2ccc3ccccc3n2)cc1 :: 3400 nM
CCC1CCc2nc3sc(C(=O)Nc4cccc(F)c4)c(N)c3cc2C1 (centres undefined) :: > 100000 nM

Count: 2. Required value per item: GI50.
1. COc1cc(/C=C/C(=O)c2ccc(NC(=O)CN3CCN(c4cc5c(cc4F)c(=O)c(C(=O)O)cn5C4CC4)CC3)cc2)cc(OC)c1OC
2. CC[C@@H](C(=O)[C@@H](C)[C@@H](O)[C@H](C)[C@@H]1O[C@@H]([C@@H](CC)C(=O)N(CC)CC)CC[C@@H]1C)C1O[C@]2(C=CC(=O)[C@]3(CC[C@@](C)([C@H]4CC[C@](O)(CC)[C@H](C)O4)O3)O2)[C@H](C)C[C@@H]1C (some centres undefined)

Outgoing:
["976 nM", "2020 nM"]

====

- System: M14 melanoma
- assay.details: NCI tumour cell line growth inhibition, 48 h
observable: TGI

Count: 3. Required value per item: TGI.
1. O=C(Nc1ccccc1)NS(=O)(=O)c1ccc(-n2nc3c(c2-c2ccc(Cl)cc2)Cc2ccccc2-3)cc1
2. CCc1cccc(C(C)C)c1N1C(=O)C(=O)C(c2nc3ccccc3s2)C(=O)C1=O
3. Nc1nc(-c2ccccc2)nc2c1[n+]([O-])c1ccccc1[n+]2[O-]

Outgoing:
> 100 µM
> 50 µM
> 100 µM

Count: 2. Required value per item: TGI.
1. CCOC(=O)NC(NC1=NCCS1)(C(=O)OCC)C(F)(F)F (stereo not given)
2. O=C1CCC(=O)N1n1c(Cc2ccc(Cl)cc2)n[nH]c1=O

Outgoing:
1. > 100 µM
2. > 100 µM

====

- System: MALME-3M melanoma
- assay.details: NCI tumour cell line growth inhibition, 48 h
observable: TGI

O=C(O)/C(=C/C=C/c1ccccc1)c1csc(-c2nc(/C(=C\C=C\c3ccccc3)C(=O)O)cs2)n1 :: 60 µM
CC1(CCCO)CCCCCCCCCC(C)(CCCO)C1=O (stereo unspecified) :: > 100 µM
O=C(Cc1nccc2c1[nH]c1ccccc12)OC1C#CCSCC#C/C=C\1 (stereo unspecified) :: > 100 µM
COc1cc(C2C(C(=O)O)=C(COC(C)=O)Oc3cc4c(cc32)OCO4)cc(OC)c1OC (stereo unspecified) :: > 100 µM
CC(=O)O[C@@H]1C2=C(C)C=C(O2)[C@H]2O[C@]2(C)C[C@H]2C=C(C(=O)O2)[C@H](OC(C)=O)CC1[C@@]1(C)CO1 (stereo partly specified) :: 58.4 µM

Count: 7. Required value per item: TGI.
1. C1CCN(c2nc(=[N+]3CCCCC3)ss2)CC1
2. Fc1ccccc1C1CC(c2ccc3ccccc3c2)=Nc2ccccc2S1 (stereo unspecified)
3. CC(C)C(C)C(C)(C)P(C)(C)=O (stereo unspecified)
4. O=C(O)c1cnc2[nH]ccn2c1=O
5. CC[C@@H](C(=O)[C@@H](C)[C@@H](O)[C@H](C)[C@@H]1O[C@@H]([C@@H](CC)C(=O)N(CC)CC)CC[C@@H]1C)C1O[C@]2(C=CC(=O)[C@]3(CC[C@@](C)([C@H]4CC[C@](O)(CC)[C@H](C)O4)O3)O2)[C@H](C)C[C@@H]1C (stereo partly specified)
6. Cc1ccc(-n2[nH]nc(C#N)c2=O)cc1
7. Cc1ccc(O)c(-c2cc(-c3cccc(Cl)c3)c(C#N)c(N)n2)c1

Outgoing:
> 100 µM
> 100 µM
> 100 µM
> 100 µM
4.9 µM
> 100 µM
58.1 µM

Count: 3. Required value per item: TGI.
1. O=C(NP(=O)(N1CC1)N1CC1)c1cc(I)ccc1I
2. CC(=Nc1ccccc1)C1=C(O)C(Cc2ccccc2)NC1=O (stereo unspecified)
3. Clc1ccc(C2SCc3nc4ccccc4n32)cc1Cl (stereo unspecified)

Outgoing:
1. > 92 µM
2. > 100 µM
3. 42.5 µM

====

Please respond with reported TGI for every item in the list.
- Tested on: IGROV1 ovarian
- assay.details: NCI tumour cell line growth inhibition, 48 h

Fc1ccc(Nc2nc3nonc3nc2Nc2ccc(F)cc2)cc1 :: 13.8 µM
Nc1nc(-c2ccc(F)cc2)c(-c2ccc3ncccc3n2)s1 :: > 20.9 µM
O=CC(O)C(O)C(O)C(O)COP(=O)(O)Cc1ccccc1 (centres undefined) :: > 10 µM

From here, focus on the item given below.
Incoming: IGROV1 ovarian / TGI / CC(C)(C)c1cc(C2=NN(c3ccccc3)C(c3ccccc3)C2)cc(C(C)(C)C)c1O (centres undefined) : value?
Outgoing: > 100 µM

====

- Test system: NCI/ADR-RES ovarian
- assay.details: NCI tumour cell line growth inhibition, 48 h
observable: TGI

Count: 2. Required value per item: TGI.
1. CCOC(=O)c1ccc(C(=O)/C(C(C)=O)=C2\CCCN2C)n1C
2. CC(=O)OCC1OC(SC2OC(COC(C)=O)C(OC(C)=O)C(OC(C)=O)C2OC(C)=O)C(OC(C)=O)C(OC(C)=O)C1OC(C)=O (configuration not stated)

Outgoing:
1. > 100 µM
2. > 100 µM

Count: 5. Required value per item: TGI.
1. CCOC(=O)C(Cl)(NC(=O)c1c(F)c(F)c(F)c(F)c1F)C(F)(F)F (configuration not stated)
2. CCOc1ccc(/C=N/[N+](C)(C)C)cc1OCC
3. Cc1cc(C)c2c(n1)S(=O)(=O)N(CCCN1CCN(c3cccc(C(F)(F)F)c3)CC1)c1c-2nn(C)c1C
4. O=C1CCCC/C1=C\c1ccc(Br)cc1
5. CCCCCCCCCCCCOP(=O)(O)OCC(N)C(=O)O (configuration not stated)

Outgoing:
1: > 100 µM; 2: > 10 µM; 3: > 100 µM; 4: 12.2 µM; 5: > 100 µM

====

- System: OVCAR-5 ovarian
- assay.details: NCI tumour cell line growth inhibition, 48 h
Where a SMILES comes first, the peptide text is derived from it. The star is where a group is joined. Fmoc = O=C(OCC1c2ccccc2-c2ccccc21)*; Boc = CC(C)(C)OC(=O)*
Please respond with reported TGI for every item in the list.

Observe how each entry below is paired with its result.
CC(=O)OC(CCC1(C)OC1COc1ccc(CCNC(=O)c2ccccc2)cc1)C(C)(C)OC(C)=O (stereo not drawn) :: > 100 µM
COc1ccc(C(SCCO)(c2ccccc2)c2ccccc2)cc1 :: 36.4 µM
O=C1c2ccccc2C(=O)c2c1ccc(C1C(=O)c3ccccc3C1=O)c2-c1c(C2C(=O)c3ccccc3C2=O)ccc2c1C(=O)c1ccccc1C2=O :: > 100 µM
COc1ccc2c(c1)C(=O)c1c-2c(Nc2ccc(Cl)cc2)nc2ccccc12 :: 84.1 µM

Count: 4. Required value per item: TGI.
1. COc1cc2c3c(c1OC)-c1c(ccc4c1OCO4)CC3(C#N)N(C(=O)c1ccccc1)CC2 (stereo not drawn)
2. COC1OC(COCc2ccc(Cl)cc2)C(OCc2ccc(Cl)cc2)C1N=[N+]=[N-] (stereo not drawn)
3. CC(C)(C)OC(=O)NCCCCC(NC(=O)OCC1c2ccccc2-c2ccccc21)C(=O)N1CCCC1C(=O)NCC(N)=O (stereo not drawn) (Fmoc-Lys(Boc)-Pro-Gly-NH2; configuration not given here)
4. COCOc1c(C(O[Si](C)(C)C(C)(C)C)c2cnc(Sc3ccccc3)n2C)ccc(OC)c1OC (stereo not drawn)

Outgoing:
> 100 µM
> 100 µM
> 100 µM
> 100 µM

====

- Test system: HT29 colon
- assay.details: NCI tumour cell line growth inhibition, 48 h
Please respond with reported TGI for every item in the list.

CCN(C(=O)c1cc(F)ccc1Oc1cncnc1N1CC2(CCN(CC3CCC(NS(=O)(=O)CC)CC3)CC2)C1)C(C)C (centres undefined) :: > 100 µM
CN1C(=O)[C@@H]2[C@@H]3c4ccccc4N(S(=O)(=O)C(F)(F)F)[C@@H]3c3[nH]c4ccccc4c3[C@@H]2C1=O :: > 100 µM

Count: 2. Required value per item: TGI.
1. CCSc1cc(=O)n(C)c(=O)n1C
2. CN(C)c1ccccc1CN1CCCN(Cc2ccccc2N(C)C)C1c1ccncc1

Outgoing:
1. > 100 µM
2. 26.5 µM

Data origin, for the record: PubChem BioAssay (NCI)
